System: MOLT-4
Assay: Cytotoxicity against human MOLT4 cells at 100 to 400 uM after 18 hrs by erythrosine B dye-exclusion test
Type: cell-based
Settings: molt-4, 18 h
measured_endpoint: Activity

I'm curious: which Activity was measured for Oc1cccc2cccnc12 tested on MOLT-4?
Toxic

Request: Activity, test system MOLT-4, entry COc1c(Br)cc(S(=O)(=O)N(C)C)c2ccc(C)nc12
Toxic

Provide value of Activity for this record tested with MOLT-4: CNS(=O)(=O)c1cc(S(=O)(=O)NC)c2ccc(C)nc2c1O
Non-toxic

Reported Activity for MOLT-4, given CNS(=O)(=O)c1ccc(OC)c2nc(C)ccc12 ?
Non-toxic

Record CCN(CC)S(=O)(=O)c1cc(S(=O)(=O)N(CC)CC)c2ccc(C)nc2c1OC : what is its Activity with MOLT-4?
Toxic

Continuing:
# query: Activity | item COc1c(S(=O)(=O)N(C)C)cc(S(=O)(=O)N(C)C)c2ccc(C)nc12 | system: MOLT-4
Non-toxic

// map COc1c(I)cc(S(=O)(=O)N(C)C)c2ccc(C)nc12 to recorded Activity (system: MOLT-4)
Toxic

# returns recorded Activity (system: MOLT-4) for Oc1ccc(Cl)c2cccnc12
Toxic

Hello, I am looking for reported Activity with MOLT-4 for CCCNS(=O)(=O)c1cc(S(=O)(=O)NCCC)c2ccc(C)nc2c1O . Could you help?
Toxic

Lab note: need Activity for Cc1ccc2c(S(=O)(=O)N(C)C)cc(Br)c(O)c2n1 on MOLT-4, anyone have it?
Non-toxic

Form: Entry = CCOc1c(S(=O)(=O)N(CC)CC)cc(S(=O)(=O)N(CC)CC)c2ccc(C)nc12 | System = MOLT-4 | Activity = ____
Toxic

###

Test system: MOLT-4
Test: Cytotoxicity against human MOLT4 cells at 100 to 400 uM after 18 hrs by erythrosine B dye-exclusion test
Assay type: cell-based
Conditions: molt-4, 18 h
measured_endpoint: Activity

Below, 5 compounds whose answers are already recorded.
What does the record list as Activity for CCOc1c(Br)cc(S(=O)(=O)N(C)C)c2ccc(C)nc12 ?
Toxic

Could you tell me which Activity is on file for Cc1ccc2c(S(=O)(=O)N(C)C)cc(S(=O)(=O)N(C)C)c(O)c2n1 ?
Toxic

Request the reported Activity associated with COc1ccc(S(=O)(=O)N(C)C)c2ccc(C)nc12
Non-toxic

Please give the measured Activity for this compound: CCOc1c(I)cc(S(=O)(=O)N(C)C)c2ccc(C)nc12
Toxic

I have this compound here, CCN(CC)S(=O)(=O)c1cc(S(=O)(=O)N(CC)CC)c2ccc(C)nc2c1O , and I need its recorded Activity.
Toxic

Below: the item to evaluate.
Form field: reported Activity of Cc1ccc2c(S(=O)(=O)N(C)C)ccc(O)c2n1
Non-toxic

###

System: MOLT-4
Test: Radioprotective activity against gamma-irradiated human MOLT4 cells preincubated for 1 hr at <50 uM before gamma-irradiation measured after 18 hrs by erythrosine B dye-exclusion test
Assay type: functional, cell-based
Calls of active or inactive are those of the source. The rule behind the calls is not given here.
Respond with a class label; see active, inactive

Please let me know the test result on file for c1ccc(CNCCNCc2ccccn2)nc1 .
active

Name the outcome recorded for COc1cc(/C=C/C(=O)CC(=O)/C=C/c2ccc(O)c(OC)c2)ccc1O in the assay.
active

What is the recorded call for this molecule in the test? Oc1ccc(Cl)c2cccnc12
active

Give the logged outcome of this assay for the following molecule: Oc1cccc2cccnc12
active

Status in this test for CNS(=O)(=O)c1cc(S(=O)(=O)NC)c2cccnc2c1O ?
inactive

// return assay outcome for O=C1O[C@H]([C@@H](O)CO)C(O)=C1O
active

Please state the recorded outcome for this molecule: c1ccc(CN(CCN(Cc2ccccn2)Cc2ccccn2)Cc2ccccn2)nc1
active

###

System: MOLT-4
Assay: Radioprotective activity against gamma-irradiated human MOLT4 cells preincubated for 1 hr at 100 to 400 uM before gamma-irradiation measured after 18 hrs by erythrosine B dye-exclusion test
Type: functional, cell-based
Active and inactive are the calls of the source. No cut-off for these calls is given here.
Valid outcomes are listed here; reply with one: active, inactive

Hi team, can someone confirm the assay call for CN(C)S(=O)(=O)c1cc(Br)c(O)c2ncccc12 ?
active

Given Cc1ccc2c(S(=O)(=O)N(C)C)ccc(O)c2n1 , state the outcome it received in this test.
active

Given Cc1ccc2c(S(=O)(=O)N3CCCNCC3)cc(S(=O)(=O)N3CCCNCC3)c(O)c2n1 , state the outcome it received in this test.
active

// return assay outcome for CN(C)S(=O)(=O)c1ccc(O)c2ncccc12
active

What classification did CN(C)S(=O)(=O)c1ccc2c(S(=O)(=O)N(C)C)cc(S(=O)(=O)N(C)C)c(O)c2c1 end up with in this test?
inactive

# fetch the recorded call for Oc1ccc(Cl)c2ccccc12 here
inactive

Hi, sorry to bother you, what did the test record for Cc1ccc2c(S(N)(=O)=O)cc(S(N)(=O)=O)c(O)c2n1 ?
inactive

Name the outcome recorded for Cc1ccc2c(S(=O)(=O)NCCN)cc(S(=O)(=O)NCCN)c(O)c2n1 in the assay.
inactive

What call does the record list for Cc1ccc2c(S(=O)(=O)N(C)C)cc(Br)c(O)c2n1 ?
active

Fill in: this test's call for CNS(=O)(=O)c1cc(S(=O)(=O)NC)c2ccc(C)nc2c1O is ___
active

Hello, I am checking results. What call was entered for c1ccc2cnccc2c1 ?
inactive

What call does the record list for c1ccc2ncccc2c1 ?
inactive

###

Test system: MOLT-4
Assay: Radioprotective activity against gamma-irradiated human MOLT4 cells preincubated for 1 hr at 100 to 400 uM before gamma-irradiation measured after 18 hrs by erythrosine B dye-exclusion test
Type: functional, cell-based
Calls of active or inactive are those of the source. No cut-off for these calls is given here.
Hi! Could you answer with just one of these? active, inactive

Could you kindly confirm the outcome this assay logged for Cc1ccc2cccc(O)c2n1 ?
active

What did the test return for Cc1ccc2c(S(=O)(=O)N3CCNCC3)cc(S(=O)(=O)N3CCNCC3)c(O)c2n1 ?
active

Write down the call the test reported for this molecule. Item: CNS(=O)(=O)c1cc(S(=O)(=O)NC)c2cccnc2c1O
active

Given Oc1cccc2ccccc12 , state the outcome it received in this test.
inactive
